# methodSummary: activity coefficient (dimensionless); of the first substance listed, at infinite dilution; xn = mol fraction of the nth substance listed
# setupConditions: 313.15 K; Liquid; Chromatography; x1 = 0
Returns true (1) if the recorded activity coefficient is greater than or equal to 0.8, and false (0) otherwise.

[Q] Quick check: does C#CCCCCC [1-heptyne] + CC(CC(C)(C)C)CP(=O)([O-])CC(C)CC(C)(C)C.CCCCCCCCCCCCCC[P+](CCCCCC)(CCCCCC)CCCCCC have activity coefficient greater than or equal to 0.8?
[A] false (0)

[Q] Determine whether this compound has activity coefficient no lower than 0.8: c1ccccc1 [benzene] + CC(CC(C)(C)C)CP(=O)([O-])CC(C)CC(C)(C)C.CCCCCCCCCCCCCC[P+](CCCCCC)(CCCCCC)CCCCCC
[A] false (0)

[Q] Decide: activity coefficient of C1CCCCCC1 [cycloheptane] + CC(CC(C)(C)C)CP(=O)([O-])CC(C)CC(C)(C)C.CCCCCCCCCCCCCC[P+](CCCCCC)(CCCCCC)CCCCCC >= 0.8?
[A] false (0)

[Q] Confirm if activity coefficient reported for the compound CCCCCCCC [octane] + CC(CC(C)(C)C)CP(=O)([O-])CC(C)CC(C)(C)C.CCCCCCCCCCCCCC[P+](CCCCCC)(CCCCCC)CCCCCC is 0.8 or above.
[A] true (1)

[Q] Please tell me: is the compound C#CCCCCCC [1-octyne] + CC(CC(C)(C)C)CP(=O)([O-])CC(C)CC(C)(C)C.CCCCCCCCCCCCCC[P+](CCCCCC)(CCCCCC)CCCCCC at or over 0.8 in terms of activity coefficient?
[A] false (0)
